- Test Protocol: Activation by hydrolysis in phosphate buffer
- Type: physicochemical
- Setup Conditions: 1 mM phosphate buffer, pH 7.4, 37° C.
Collected Calculated Activation Rate due to Hydrolysis values appear next to each entry.
Readout Kind: Calculated Activation Rate due to Hydrolysis

Compound | Result
C=COC(=O)N(N(CCCl)S(C)(=O)=O)S(C)(=O)=O [Compound 10c] | 0.07 nmol/mL/min
COC(=O)N(N(CCCl)S(C)(=O)=O)S(C)(=O)=O [Compound 10a] | 0.03 nmol/mL/min
CS(=O)(=O)N(CCCl)N(C(=O)OCCCl)S(C)(=O)=O [Compound 10b] | 0.02 nmol/mL/min
CS(=O)(=O)N(CCCl)N(C(=O)Oc1ccccc1)S(C)(=O)=O [Compound 10d] | 0.06 nmol/mL/min
